I'd appreciate it if you could supply inhibition in vivo at 10 mg/kg values for the items below.
Test system: Rattus norvegicus
measurement-description: Antihypertensive activity against DOCA-salt induced hypertension in albino rat assessed as reduction in systolic blood pressure at 10 mg/kg, po after 600 mins by tail-cuff method
Assay type: functional
condition-label: Artery, 10 h
Enter your answer as a number in %; do not include the unit.

Prompt: Fill in: inhibition in vivo at 10 mg/kg of CC1=C(C(=O)Nc2ccc([N+](=O)[O-])cc2)C(c2ccc(Br)cc2)N=C(SCc2ccccc2Cl)N1 (stereo unspecified) is ___
Response: 9.7

Prompt: Fill in: inhibition in vivo at 10 mg/kg of CC1=C(C(=O)Nc2ccc(Br)cc2)C(c2ccc(Cl)cc2Cl)N=C(SCc2ccc(Cl)cc2)N1 (stereo unspecified) is ___
Response: 30.3

Prompt: Fill in: inhibition in vivo at 10 mg/kg of COc1ccc(C2N=C(SCc3ccccc3)NC(C)=C2C(=O)Nc2ccc(F)cc2)cc1OC (stereo unspecified) is ___
Response: 3.1

Prompt: Fill in: inhibition in vivo at 10 mg/kg of CC1=C(C(=O)Nc2ccc(Br)cc2)C(c2ccc(Cl)cc2Cl)N=C(SCc2ccccc2)N1 (stereo unspecified) is ___
Response: 17.4

Prompt: Fill in: inhibition in vivo at 10 mg/kg of COC(=O)C1=C(C)NC(C)=C(C(=O)OC)C1c1ccccc1[N+](=O)[O-] is ___
Response: 24.1

Prompt: Fill in: inhibition in vivo at 10 mg/kg of COc1ccc(C2N=C(SCc3ccc(F)cc3)NC(C)=C2C(=O)Nc2ccc(Br)cc2)cc1 (stereo unspecified) is ___
Response: 24.1

Prompt: Fill in: inhibition in vivo at 10 mg/kg of CC1=C(C(=O)Nc2ccc([N+](=O)[O-])cc2)C(c2ccc(Br)cc2)N=C(SCc2cccc(Cl)c2)N1 (stereo unspecified) is ___
Response: 5.1

Prompt: Fill in: inhibition in vivo at 10 mg/kg of COc1ccc(C2N=C(SCc3cccc(Cl)c3)NC(C)=C2C(=O)Nc2ccc(Br)cc2)cc1 (stereo unspecified) is ___
Response: 32.8

Prompt: Fill in: inhibition in vivo at 10 mg/kg of COc1ccc(C2N=C(SCc3ccccc3)NC(C)=C2C(=O)Nc2ccc(Br)cc2)cc1 (stereo unspecified) is ___
Response: 11.3

Prompt: Fill in: inhibition in vivo at 10 mg/kg of CC1=C(C(=O)Nc2ccc(Br)cc2)C(c2ccc(Cl)cc2Cl)N=C(SCc2cccc(Cl)c2)N1 (stereo unspecified) is ___
Response: 15.4

Prompt: Fill in: inhibition in vivo at 10 mg/kg of CC1=C(C(=O)Nc2ccc([N+](=O)[O-])cc2)C(c2ccc(Br)cc2)N=C(SCc2ccc(F)cc2)N1 (stereo unspecified) is ___
Response: 32.3

Prompt: Fill in: inhibition in vivo at 10 mg/kg of CC1=C(C(=O)Nc2ccc(F)cc2)C(c2ccc([N+](=O)[O-])cc2)N=C(SCc2cccc(Cl)c2)N1 (stereo unspecified) is ___
Response: 16.4

Prompt: Fill in: inhibition in vivo at 10 mg/kg of COc1ccc(C2N=C(SCc3ccccc3Cl)NC(C)=C2C(=O)Nc2ccc(Br)cc2)cc1 (stereo unspecified) is ___
Response: 13.3

Prompt: Fill in: inhibition in vivo at 10 mg/kg of CC1=C(C(=O)Nc2ccc(F)cc2)C(c2ccc([N+](=O)[O-])cc2)N=C(SCc2ccccc2)N1 (stereo unspecified) is ___
Response: 32.3

Prompt: Fill in: inhibition in vivo at 10 mg/kg of CC1=C(C(=O)Nc2ccc([N+](=O)[O-])cc2)C(c2cccc([N+](=O)[O-])c2)N=C(SCc2cccc(Cl)c2)N1 (stereo unspecified) is ___
Response: 19

Prompt: Fill in: inhibition in vivo at 10 mg/kg of CC1=C(C(=O)Nc2ccc([N+](=O)[O-])cc2)C(c2ccc(Br)cc2)N=C(SCc2ccccc2)N1 (stereo unspecified) is ___
Response: 27.2

Prompt: Fill in: inhibition in vivo at 10 mg/kg of CC1=C(C(=O)Nc2ccc([N+](=O)[O-])cc2)C(c2cccc([N+](=O)[O-])c2)N=C(SCc2ccc(Cl)cc2)N1 (stereo unspecified) is ___
Response: 26.2

Prompt: Fill in: inhibition in vivo at 10 mg/kg of CC1=C(C(=O)Nc2ccc(F)cc2)C(c2ccc([N+](=O)[O-])cc2)N=C(SCc2ccc(Cl)cc2)N1 (stereo unspecified) is ___
Response: 28.2

Prompt: Fill in: inhibition in vivo at 10 mg/kg of COc1ccc(C2N=C(SCc3ccc(Cl)cc3)NC(C)=C2C(=O)Nc2ccc(Br)cc2)cc1 (stereo unspecified) is ___
Response: 30.3

Prompt: Fill in: inhibition in vivo at 10 mg/kg of CC1=C(C(=O)Nc2ccc([N+](=O)[O-])cc2)C(c2cccc([N+](=O)[O-])c2)N=C(SCc2ccccc2)N1 (stereo unspecified) is ___
Response: 27.2

Prompt: Fill in: inhibition in vivo at 10 mg/kg of COc1ccc(C2N=C(SCc3ccc(Cl)cc3)NC(C)=C2C(=O)Nc2ccc(F)cc2)cc1OC (stereo unspecified) is ___
Response: 26.7

Prompt: Fill in: inhibition in vivo at 10 mg/kg of CC1=C(C(=O)Nc2ccc([N+](=O)[O-])cc2)C(c2cccc([N+](=O)[O-])c2)N=C(SCc2ccccc2Cl)N1 (stereo unspecified) is ___
Response: 13.3

Prompt: Fill in: inhibition in vivo at 10 mg/kg of COc1ccc(C2N=C(SCc3ccc(F)cc3)NC(C)=C2C(=O)Nc2ccc(F)cc2)cc1OC (stereo unspecified) is ___
Response: 21

Prompt: Fill in: inhibition in vivo at 10 mg/kg of CC1=C(C(=O)Nc2ccc([N+](=O)[O-])cc2)C(c2ccc(Br)cc2)N=C(SCc2ccc(Cl)cc2)N1 (stereo unspecified) is ___
Response: 34.4

Prompt: Fill in: inhibition in vivo at 10 mg/kg of COc1ccc(C2N=C(SCc3cccc(Cl)c3)NC(C)=C2C(=O)Nc2ccc(F)cc2)cc1OC (stereo unspecified) is ___
Response: 17.4

Prompt: Fill in: inhibition in vivo at 10 mg/kg of CC1=C(C(=O)Nc2ccc(F)cc2)C(c2ccc([N+](=O)[O-])cc2)N=C(SCc2ccccc2Cl)N1 (stereo unspecified) is ___
Response: 17.4

Prompt: Fill in: inhibition in vivo at 10 mg/kg of COc1ccc(C2N=C(SCc3ccccc3Cl)NC(C)=C2C(=O)Nc2ccc(F)cc2)cc1OC (stereo unspecified) is ___
Response: 30.3

Prompt: Fill in: inhibition in vivo at 10 mg/kg of CC1=C(C(=O)Nc2ccc(Br)cc2)C(c2ccc(Cl)cc2Cl)N=C(SCc2ccc(F)cc2)N1 (stereo unspecified) is ___
Response: 33.3

Prompt: Fill in: inhibition in vivo at 10 mg/kg of CC1=C(C(=O)Nc2ccc(F)cc2)C(c2ccc([N+](=O)[O-])cc2)N=C(SCc2ccc(F)cc2)N1 (stereo unspecified) is ___
Response: 25.6

Prompt: Fill in: inhibition in vivo at 10 mg/kg of CC1=C(C(=O)Nc2ccc(Br)cc2)C(c2ccc(Cl)cc2Cl)N=C(SCc2ccccc2Cl)N1 (stereo unspecified) is ___
Response: 24.6

Prompt: Fill in: inhibition in vivo at 10 mg/kg of CC1=C(C(=O)Nc2ccc([N+](=O)[O-])cc2)C(c2cccc([N+](=O)[O-])c2)N=C(SCc2ccc(F)cc2)N1 (stereo unspecified) is ___
Response: 30.3
